Each recorded value in this set is attributed to the RNAGym collection of RNA variant scans (doi:10.1126/science.aae0568).

B1: tRNA (parent)
chain: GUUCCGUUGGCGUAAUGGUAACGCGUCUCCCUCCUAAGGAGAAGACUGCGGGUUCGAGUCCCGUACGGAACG

variants of: B1; test: yeast fitness relative to wild type (ratio to wild type); higher = fitter; tRNA-Arg(CCU), competitive growth, 37 C, YPD
Fewer inactive variants are shown than the library holds.
Measured Metric: yeast fitness

Reference set (4 entries):
• G51A U54C = 0.715
• A15U C29G G48A A69U = ≤ 0.5
• G12A U16A U64G = ≤ 0.5
• A14C G17C C31U A37C = 0.577

Give me measured yeast fitness, please, for this variant: A20G C22G C27G C30U C31G G51C G63A A65G
≤ 0.5

Give me measured yeast fitness, please, for this variant: C11G U19C C27G U28G
≤ 0.5

Give me measured yeast fitness, please, for this variant: U2A C22G C62U G63C
≤ 0.5
